Assay: PAMPA assay
Type: in vitro ADME
Details: pH 7.4
experimental-readout: Papp at 5 h, 1 μM (×10⁻⁶ cm/s)
The figure you give is taken to be in ×10⁻⁶ cm/s; do not add the unit.

Completed entries (count: 3):
COCCOCCOCCOCCOCCOc1cc2cc(C(=O)N3C[C@@H](CCl)c4c3cc(O)c3[nH]c(C(=O)OC)cc43)[nH]c2c(OCCOCCOCCOCCOCCOC)c1OCCOCCOCCOCCOCCOC [10e] | 0.11
COCCOCCOCCOCCOCCOc1c(OC)cc2cc(C(=O)N3C[C@@H](CCl)c4c3cc(O)c3[nH]c(C(=O)OC)cc43)[nH]c2c1OC [15e] | 2.1
COC(=O)c1cc2c([nH]1)C(=O)C=C1N(C(=O)c3cc4cc(OC)c(OC)c(OC)c4[nH]3)CC3CC123 (stereo not shown) [compound 2, duocarmycin SA, reference compound] | 9.5

Now examine the next entry.
Quick one: Papp at 5 h, 1 μM for COCCOc1c(OC)cc2cc(C(=O)N3C[C@@H](CCl)c4c3cc(O)c3[nH]c(C(=O)OC)cc43)[nH]c2c1OC [15a] ?
4
